System: HeLa cells
Test: [3H] Adenosine uptake assay
Type: cell-based
Conditions: Homo sapiens, HeLa, accumulation of tritiated adenosine into HeLa cells; compound concentration range 10 μM to 0.032 nM; read-out: ADU inhibition IC50 (adenosine uptake inhibition potency)
observable: IC50

1) CCOc1cc(C(=O)Nc2cc(C(F)(F)F)ccn2)ccc1-c1nc([C@H]2CCC[C@](C(=O)O)(C(C)C)C2)n2ccnc(N)c12; 10 µM
2) CC1(C)[C@@H](C(=O)O)CC[C@@]1(C)c1nc(-c2ccc(C(=O)Nc3cc(C(F)(F)F)ccn3)cc2)c2c(N)nccn12; 4.32 µM
3) CCOc1cc(C(=O)Nc2cc(C(F)(F)F)ccn2)ccc1-c1nc(C2(C)CCC(C)(C(=O)O)C2)n2ccnc(N)c12 (stereo not drawn); 6.29 µM

Entry source: patent US10087188B2
